- System: SF-268 CNS
- protocolText: NCI tumour cell line growth inhibition, 48 h
measuredAttribute: GI50

Use the examples below as a reference point.
INSERT INTO results (molecule, targetofassay, endpointvalue) VALUES
  ('CCCCCCCCCCCCOC1C(C(COC2OC(C(O)CN3CCCCC3)C3OC(C)(C)OC23)NC(=O)Nc2ccccc2)OC2OC(C)(C)OC21 (centres undefined)', 'SF-268 CNS', '10.3 µM'),
  ('COc1ccc(C2C(c3ccccc3)C(=O)N2c2cc(OC)c(OC)c(OC)c2)cc1I (centres undefined)', 'SF-268 CNS', '0.712 µM'),
  ('COc1cc(-c2nc(SCC(=O)Nc3ccc(C(C)=O)cc3)[nH]c(=O)c2C#N)cc(OC)c1OC', 'SF-268 CNS', '68.7 µM'),
  ('O=C(NCCN1CCOCC1)Nc1ccc(-c2cc3c(Nc4ccc(Oc5cccc(C(F)(F)F)c5)c(Cl)c4)ncnc3s2)cc1', 'SF-268 CNS', '1.76 µM'),
  ('CN1CCN(Cc2ccc(NC(=O)c3[nH]ncc3Nc3ncnc4sccc34)cc2)CC1', 'SF-268 CNS', '0.446 µM'),
  ('NC(N)=N/N=C/c1cccc(Cl)c1Cl', 'SF-268 CNS', '11.8 µM'),
  ('CCOC(=O)N1C/C(=C/c2ccc(OC)cc2)C(=O)/C(=C/c2ccc(OC)cc2)C1', 'SF-268 CNS', '3.58 µM'),
  ('O=C(c1ccco1)c1c(C(F)(F)F)nc2cc(C(F)(F)F)ccc2[n+]1[O-]', 'SF-268 CNS', '24.6 µM');

Continue with the molecule presented below.
Value of GI50 reported for the molecule CCOC(=O)c1c(C)n(CC(C)C)c2c1cc1oc(=O)c(=O)n3cnc2c13 is 18 µM

====

- Test system: DU-145 prostate
- protocolText: NCI tumour cell line growth inhibition, 48 h
Listing of recorded GI50 by entry.

Use the examples below as a reference point.
INSERT INTO assay_data (compound, measuredattribute, endpointvalue) VALUES
  ('Cc1ccc2[nH]c(C(=O)NN3C(=O)CSC34CCCC(C)C4)c(-c3ccccc3)c2c1 (stereo not drawn)', 'GI50', '18.7 µM'),
  ('CCN(Cc1nc2cc(C(F)(F)F)ccc2nc1-c1ccccc1)c1ccc(OC)c(OC)c1', 'GI50', '14.5 µM'),
  ('COc1ccc2c(c1OC)-c1c(c3ccc([N+](=O)[O-])cc3c(=O)n1CCCN=[N+]=[N-])C2=O', 'GI50', '4.88 µM');

Value of GI50 reported for the compound CC(F)(F)c1cc(F)ccc1-c1sc2cc(O)ccc2c1Oc1ccc(/C=C/C(=O)O)cc1 is 12.7 µM

Value of GI50 reported for the compound CCOC(=O)N1C/C(=C/c2ccc(OC)cc2)C(=O)/C(=C/c2ccc(OC)cc2)C1 is 4.18 µM

Value of GI50 reported for the compound C#CCOc1ccc2ncnc(Nc3ccc(NC(=O)CCl)cc3)c2c1 is 11.7 µM

Value of GI50 reported for the compound CCCC[P+](c1ccccc1)(c1ccccc1)c1ccccc1 is 4.41 µM

Value of GI50 reported for the compound COc1ccc(NC(=O)Nc2ccc(Nc3nc(C)cc(Nc4ccc(C)cc4)n3)cc2)cc1 is 1.16 µM

====

- System: MCF7 breast
- protocolText: NCI tumour cell line growth inhibition, 48 h
measuredAttribute: TGI

Use the examples below as a reference point.
INSERT INTO assay_data (compound, targetofassay, measuredattribute, endpointvalue) VALUES
  ('C[C@H]1C(OCCOC2O[C@@H]3O[C@@]4(C)CC[C@H]5[C@H](C)CCC([C@H]2C)[C@@]35O4)O[C@@H]2O[C@@]3(C)CC[C@H]4[C@H](C)CCC1[C@@]24O3 (stereo not given in full)', 'MCF7 breast', 'TGI', '> 100 µM'),
  ('Oc1ccc(Br)cc1/C=N/NC(=S)NC12CC3CC(CC(C3)C1)C2', 'MCF7 breast', 'TGI', '5.92 µM'),
  ('Cc1c2ccnc(-c3ccccc3)c2cc2c1[nH]c1ccccc12', 'MCF7 breast', 'TGI', '8.59 µM'),
  ('Cc1[nH]nc2c1N=C(c1ccccc1F)c1cc(C#N)ccc1N2', 'MCF7 breast', 'TGI', '> 16.8 µM');

Continue with the compound presented below.
Value of TGI reported for the compound COc1ccc(C2SC(N)=Nc3c2c(C)nn3C(=O)c2ccc(Cl)cc2)cc1 (stereo not given) is > 10 µM

====

- Tested on: OVCAR-4 ovarian
- protocolText: NCI tumour cell line growth inhibition, 48 h
Listing of recorded TGI by entry.
Report the value in µM with no unit label.

INSERT INTO measurements (molecule, targetofassay, endpointvalue) VALUES
  ('O=C1/C(=C/c2ccc([N+](=O)[O-])s2)Oc2ccccc21', 'OVCAR-4 ovarian', 2.8);

Value of TGI reported for the molecule CC1=CCC[C@@](C)(O)[C@@H]2C[C@H]3C(CSc4ccccc4)C(=O)O[C@H]3[C@@H](O2)[C@H](C)CCC1 (stereo not given in full) is 45

====

- Tested on: HL-60(TB) leukemia
- protocolText: NCI tumour cell line growth inhibition, 48 h
measuredAttribute: TGI

Value of TGI reported for the molecule COc1ccc(/C=C/c2nc(=S)[nH][nH]2)cc1 is > 100 µM

====

- System: HT29 colon
- protocolText: NCI tumour cell line growth inhibition, 48 h
Listing of recorded TGI by entry.

INSERT INTO results (compound, endpointvalue) VALUES
  ('CCOC(=O)CC1=NC(=Nc2cc(Cl)ccc2Cl)SC1', '> 100 µM'),
  ('NC(=O)C12C3C4C1C1C2C3C41C(N)=O (centres undefined)', '> 100 µM'),
  ('C/C(=N\NC(=O)/C(C#N)=C\c1ccc(N(CCC#N)CCC#N)cc1)c1ccccc1', '> 10 µM'),
  ('Nc1nc(Cl)cc(NCC2(CO)CCC2)n1', '> 100 µM'),
  ('COc1cc(/C=C2/SC(c3ccccc3)N(c3ccc(Cl)cc3)C2=O)cc(OC)c1OC (centres undefined)', '> 100 µM');

Continue with the compound presented below.
Value of TGI reported for the compound CC(C)C[C@H](NC(=O)CCc1ccccc1)B(O)O is 15.4 µM

====

- Tested on: HS 578T breast
- protocolText: NCI tumour cell line growth inhibition, 48 h
measuredAttribute: GI50

Value of GI50 reported for the molecule O=C(c1ccco1)c1c(C(F)(F)F)nc2cc(C(F)(F)F)ccc2[n+]1[O-] is 26.7 µM

Value of GI50 reported for the molecule CCOC(=O)c1cc2cc(NC(=O)c3cc4cc([N+](=O)[O-])ccc4n3C)ccc2n1C is 97.5 µM

Value of GI50 reported for the molecule CCCC(=O)NC(c1ccc2c(c1)OCO2)c1ccc2cccnc2c1O (centres undefined) is 5.76 µM

Value of GI50 reported for the molecule COc1cc(-c2nn(C(=O)NS(=O)(=O)c3ccc(C)cc3)cc2-c2ccncc2)ccc1Cl is 7.38 µM

Value of GI50 reported for the molecule Cc1ccc2[nH]c(C(=O)NN3C(=O)CSC34CCCC(C)C4)c(-c3ccccc3)c2c1 (centres undefined) is 28.2 µM

Value of GI50 reported for the molecule COc1ccc(C2C(c3ccccc3)C(=O)N2c2cc(OC)c(OC)c(OC)c2)cc1I (centres undefined) is 0.435 µM

Value of GI50 reported for the molecule CC(F)(F)c1cc(F)ccc1-c1sc2cc(O)ccc2c1Oc1ccc(/C=C/C(=O)O)cc1 is 4.89 µM

Value of GI50 reported for the molecule COc1ccc(NC(=O)Nc2ccc(Nc3nc(C)cc(Nc4ccc(C)cc4)n3)cc2)cc1 is 2.22 µM

Value of GI50 reported for the molecule O=C1C(Cl)=C(Nc2cccc(C(F)(F)F)c2)C(=O)N1Cc1ccccc1Cl is 8.34 µM

====

Listing of recorded log10(TGI) by entry.
- System: SK-MEL-2 melanoma
- protocolText: NCI tumour cell line growth inhibition, 48 h
Hello, just confirming the data are log10 of TGI with units of µM.

Use the examples below as a reference point.
INSERT INTO assay_data (molecule, endpointvalue) VALUES
  ('Cc1ccc2[nH]c(C(=O)NN3C(=O)CSC34CCCC(C)C4)c(-c3ccccc3)c2c1 (stereo not given)', 1.36),
  ('O=C1SC(c2ccc(Cl)cc2)(c2ccc(Cl)cc2)c2ccccc21', 1.89),
  ('COc1cc2c(cc1OC)C(Cl)C(c1ccc(Cl)cc1)=C2Cl (stereo not given)', 1.56),
  ('CCCCN(CCCC)CC(C)(C)C(O)c1ccc(OC)c2ccccc12 (stereo not given)', 1.25),
  ('CCN(CC)CCN=Cc1c(O)c(O)c(C(C)C)c2cc(C)c(-c3c(C)cc4c(C(C)C)c(O)c(O)c(C=NCCN(CC)CC)c4c3O)c(O)c12', 0.71);

Value of log10(TGI) reported for the molecule COc1ccc(-c2onc(-c3c(C)cc(C)cc3C)c2C2=NCCCN2)cc1 is 1.99
